Assay: mn = molality of the nth substance listed, in mol/kg
Settings: 298.15 K; 100 kPa; Liquid; Frequency=3 MHz; Sing-around technique in a fixed-path interferometer; m2 = 0
measurement label: speed of sound (m/s)
Respond with the bare value in m/s.

Request the reported speed of sound associated with CN(C)C=O [dimethylformamide] + O=S(=O)([O-])C(F)(F)F.O=S(=O)([O-])C(F)(F)F.[Sr+2]
1457.2

Now consider CN(C)C=O [dimethylformamide] + O=S(=O)([O-])C(F)(F)F.O=S(=O)([O-])C(F)(F)F.[Ca+2] .
1457.2

Now consider CC(=O)N(C)C [N,N-dimethylethanamide] + [Ba+2].[O-][Cl+3]([O-])([O-])[O-].[O-][Cl+3]([O-])([O-])[O-] .
1455.9

Now consider CN(C)C=O [dimethylformamide] + [Ba+2].[O-][Cl+3]([O-])([O-])[O-].[O-][Cl+3]([O-])([O-])[O-] .
1457.2

Now consider CC(=O)N(C)C [N,N-dimethylethanamide] + O=S(=O)([O-])C(F)(F)F.O=S(=O)([O-])C(F)(F)F.[Sr+2] .
1455.9

Now consider CN(C)C=O [dimethylformamide] + O=S(=O)([O-])C(F)(F)F.O=S(=O)([O-])C(F)(F)F.[Mg+2] .
1457.1

Now consider CC(=O)N(C)C [N,N-dimethylethanamide] + O=S(=O)([O-])C(F)(F)F.O=S(=O)([O-])C(F)(F)F.[Mg+2] .
1455.9

Now consider CC(=O)N(C)C [N,N-dimethylethanamide] + O=S(=O)([O-])C(F)(F)F.O=S(=O)([O-])C(F)(F)F.[Ca+2] .
1455.7
